B1: INTS3 (parent)
chain: EEITEESLEESVGKPLYLIFRNLC

variants of: B1; assay: protein stability index of a GFP-peptide fusion (GPS, HEK-293T) (PSI 1-6); higher = more stable; conditions: c terminus: a fixed tail appended;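 also: lentivirally expressed fusions sorted by FACS into six bins by GFP to DsRed ratio, PSI derived from sequencing read proportions per bin multiplied by bin number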
Catalogue of variants with associated protein stability index
Give only the figure.

mutation.name	test.result
E2R	2.93
K14L	3.3
I19H	3.85
I3R	2.94
V12Q	3.34
S11H	2.56

Indicate its recorded protein stability index; the variant in question is I3A
3.14

// fetch protein stability index given entry Y17H
3.69

Return value of protein stability index for input E10Y , no commentary.
2.23

Give protein stability index for S11P
2.36

Fill in protein stability index for record E9P
2.18
